- ASSAYED_TARGET: Thrombospondin human platelet (Calbiochem, 605225) (human, UniProt P07996 19-1170)
- Sequence (P07996 19-1170 limits assumed): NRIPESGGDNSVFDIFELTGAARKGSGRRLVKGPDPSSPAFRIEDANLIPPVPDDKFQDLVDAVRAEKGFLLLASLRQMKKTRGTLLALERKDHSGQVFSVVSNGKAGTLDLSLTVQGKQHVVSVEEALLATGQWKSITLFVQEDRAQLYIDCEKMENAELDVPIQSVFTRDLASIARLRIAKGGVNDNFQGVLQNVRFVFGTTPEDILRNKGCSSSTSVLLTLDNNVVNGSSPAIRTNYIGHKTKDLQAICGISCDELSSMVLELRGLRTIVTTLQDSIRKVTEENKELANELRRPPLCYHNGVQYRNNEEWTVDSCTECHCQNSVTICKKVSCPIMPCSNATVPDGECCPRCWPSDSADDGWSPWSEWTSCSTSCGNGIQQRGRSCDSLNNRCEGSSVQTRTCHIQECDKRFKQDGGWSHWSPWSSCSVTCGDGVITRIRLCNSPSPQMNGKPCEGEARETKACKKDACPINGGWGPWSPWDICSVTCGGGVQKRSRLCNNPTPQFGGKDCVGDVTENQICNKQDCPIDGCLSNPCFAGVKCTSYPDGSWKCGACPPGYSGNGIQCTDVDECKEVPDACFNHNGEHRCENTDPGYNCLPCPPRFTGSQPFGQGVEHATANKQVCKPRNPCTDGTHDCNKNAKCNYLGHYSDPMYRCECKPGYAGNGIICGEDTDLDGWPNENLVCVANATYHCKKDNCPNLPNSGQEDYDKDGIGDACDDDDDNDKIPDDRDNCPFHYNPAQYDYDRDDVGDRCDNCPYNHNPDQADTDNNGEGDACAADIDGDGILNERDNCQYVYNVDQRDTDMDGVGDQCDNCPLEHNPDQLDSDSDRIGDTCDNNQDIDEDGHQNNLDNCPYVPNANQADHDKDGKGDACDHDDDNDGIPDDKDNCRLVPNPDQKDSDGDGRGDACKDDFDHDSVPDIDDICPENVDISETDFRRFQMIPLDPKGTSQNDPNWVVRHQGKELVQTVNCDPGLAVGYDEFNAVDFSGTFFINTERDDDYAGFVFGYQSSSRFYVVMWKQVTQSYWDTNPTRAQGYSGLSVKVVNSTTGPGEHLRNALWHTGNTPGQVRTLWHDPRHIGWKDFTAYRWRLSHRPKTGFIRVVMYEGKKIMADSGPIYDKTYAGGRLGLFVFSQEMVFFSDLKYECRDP
- MEASUREMENT_PROTOCOL: cell-based or functional assay
Positions of bridges follow the written chain, without caps; N, C: chain ends. Non-standard residues stand in square brackets, D forms with d. 2Nal = N[C@@H](Cc1ccc2ccccc2c1)C(=O)O; Gly(cPent) = N[C@H](C(=O)O)C1CCCC1; Agb = N=C(N)NCC[C@H](N)C(=O)O; Pen = CC(C)(S)[C@H](N)C(=O)O; Phg = N[C@H](C(=O)O)c1ccccc1; Tle = CC(C)(C)[C@H](N)C(=O)O; hCys = N[C@@H](CCS)C(=O)O
Label Condition met when IC50 for inhibition of cell adhesion (HUVEC to coated human TSP1) is strictly below 0.01 µM; otherwise label Condition not met.

Some solved cases for reference:
>  <BINDER>
[2Nal]R[hCys]GRDWCRW[Gly(cPent)]C-NH2 (bridge 3-8, N-12; not fully specified (N-terminus, bridges)) [Peptide-132]

>  <QUALITATIVE_LABEL>
Condition met

$$$$
>  <BINDER>
[2Nal]R[hCys]GRDW[Pen]RW[Gly(cPent)]C-NH2 (disulfide 3-8; bridge N-12; not fully specified (N-terminus, bridges)) [Peptide-134]

>  <QUALITATIVE_LABEL>
Condition not met

$$$$
>  <BINDER>
[2Nal]R[Pen]GRDW[hCys]RW[Gly(cPent)]C-NH2 (bridge 3-8, N-12; not fully specified (N-terminus, bridges)) [Peptide-133]

>  <QUALITATIVE_LABEL>
Condition not met

$$$$

Does the reported IC50 for inhibition of cell adhesion (HUVEC to coated human TSP1) of [2Nal][Tle][hCys]GRNW[hCys]RW[Gly(cPent)]C-NH2 (disulfide 3-8; bridge N-12; not fully specified (N-terminus, bridges)) [Peptide-8] stay below 0.01 µM?
Condition not met

Ok, now [2Nal]R[hCys]GRDWCRW[Gly(cPent)]C-NH2 (disulfide 3-8; bridge N-12; not fully specified (N-terminus, bridges)) [Peptide-129]
Condition not met

Queued: [2Nal]RCGRDWCRW[Gly(cPent)]C-NH2 (bridge 3-8, N-12; not fully specified (N-terminus, bridges)) [Peptide-130]
Condition met

Next up: [2Nal]RCGRDWCRW[Gly(cPent)]C-NH2 (disulfide 3-8; bridge N-12; not fully specified (N-terminus, bridges)) [Peptide-128]
Condition met

Entry [2Nal]R[hCys]G[Agb]NW[hCys][Phg]W[Gly(cPent)]C-NH2 (disulfide 3-8; bridge N-12; not fully specified (N-terminus, bridges)) [Peptide-4] please
Condition not met
